# target-or-system: T1, human MSLN-R3-his protein (human, UniProt Q13421 487-598)
# T1 construct: it is put last here; also called human MSLN-R3 protein; hMSLN-R3-his; not shown: His tag
# T1 sequence (Q13421 495-606): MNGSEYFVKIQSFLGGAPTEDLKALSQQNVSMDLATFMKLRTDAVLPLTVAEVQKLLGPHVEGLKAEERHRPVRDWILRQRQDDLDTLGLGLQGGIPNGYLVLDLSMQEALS
# assay: ELISA on coated antigen, antibody 20 nM

binder: S009-F7.67.12 (antibody, human IgG1, kappa, V domains shown, Human-murine chimeric antibody, human IgG1 heavy and kappa light constant regions) VH: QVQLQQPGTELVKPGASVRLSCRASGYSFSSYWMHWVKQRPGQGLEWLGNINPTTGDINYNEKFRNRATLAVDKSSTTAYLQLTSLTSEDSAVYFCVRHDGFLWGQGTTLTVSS VL: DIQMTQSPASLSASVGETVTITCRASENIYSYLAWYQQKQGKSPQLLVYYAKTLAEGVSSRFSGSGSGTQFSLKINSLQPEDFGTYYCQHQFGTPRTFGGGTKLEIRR
OD450 [OD]: 2.49

binder: S009-F7.23.19 (antibody, human IgG1, kappa, V domains shown, Human-murine chimeric antibody, human IgG1 heavy and kappa light constant regions) VH: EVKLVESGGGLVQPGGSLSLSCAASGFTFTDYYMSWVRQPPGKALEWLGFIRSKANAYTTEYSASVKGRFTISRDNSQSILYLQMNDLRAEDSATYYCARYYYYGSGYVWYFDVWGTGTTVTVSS VL: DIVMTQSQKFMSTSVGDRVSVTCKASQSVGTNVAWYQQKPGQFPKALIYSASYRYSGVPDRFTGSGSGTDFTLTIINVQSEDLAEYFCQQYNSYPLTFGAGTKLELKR
OD450 [OD]: 2.63

binder: S009-F7.21.16 (antibody, human IgG1, kappa, V domains shown, Human-murine chimeric antibody, human IgG1 heavy and kappa light constant regions) VH: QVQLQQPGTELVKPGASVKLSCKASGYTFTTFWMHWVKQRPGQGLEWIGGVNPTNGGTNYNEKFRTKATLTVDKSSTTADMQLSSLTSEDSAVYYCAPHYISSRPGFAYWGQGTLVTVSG VL: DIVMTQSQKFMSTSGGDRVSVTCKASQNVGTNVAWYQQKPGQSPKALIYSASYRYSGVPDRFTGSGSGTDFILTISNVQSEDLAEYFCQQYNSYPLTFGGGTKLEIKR
OD450 [OD]: 2.52

binder: S009-F7.26.15 (antibody, human IgG1, kappa, V domains shown, Human-murine chimeric antibody, human IgG1 heavy and kappa light constant regions) VH: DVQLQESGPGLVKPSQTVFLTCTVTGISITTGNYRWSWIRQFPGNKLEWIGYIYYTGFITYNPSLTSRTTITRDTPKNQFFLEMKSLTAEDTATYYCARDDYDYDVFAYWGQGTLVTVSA VL: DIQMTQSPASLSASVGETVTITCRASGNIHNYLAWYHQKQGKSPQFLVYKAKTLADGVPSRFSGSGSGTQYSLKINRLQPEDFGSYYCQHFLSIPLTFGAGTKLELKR
OD450 [OD]: 2.73

binder: S009-F7.48.1 (antibody, human IgG1, kappa, V domains shown, Human-murine chimeric antibody, human IgG1 heavy and kappa light constant regions) VH: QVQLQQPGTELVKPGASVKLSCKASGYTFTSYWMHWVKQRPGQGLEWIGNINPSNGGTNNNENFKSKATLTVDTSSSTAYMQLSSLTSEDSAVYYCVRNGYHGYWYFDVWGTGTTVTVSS VL: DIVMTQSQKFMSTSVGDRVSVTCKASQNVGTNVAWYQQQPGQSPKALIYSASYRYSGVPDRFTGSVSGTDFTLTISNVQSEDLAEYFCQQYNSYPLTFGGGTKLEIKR
OD450 [OD]: 2.43
